# System: SF-295 CNS
# methodSummary: NCI tumour cell line growth inhibition, 48 h
Can you tell me TGI for the items I'm about to list?

The following compounds each have a reported value; give each one's TGI.
1. O=C(c1cc(O)ccc1O)c1ccccc1C(Cl)(Cl)Cl
2. Cc1cc2ccccc2c[n+]1CC(O)C[n+]1cc2ccccc2cc1C
3. CN(C)CCCNc1nn2c(=O)c3ccccc3nc2c2ccccc12
4. O=C(/C=C/c1ccc(C(F)(F)F)cc1)c1ccc(Nc2nc(NCCO)nc(NCCO)n2)cc1
5. C/C(=N\NC(N)=O)C(CN1CCCCC1)C(c1ccccc1)c1c(O)c2ccccc2oc1=O (configuration not stated)
6. CCOC(=O)c1cc2c(OC(C)=O)ccc(OC(C)=O)c2s1
7. N#Cc1cccc(NC(=O)c2ccc(C(=O)O)c(C(=O)c3ccc(C(=O)O)c(C(=O)Nc4cccc(C#N)c4)c3)c2)c1

Data returned:
> 100 µM
> 100 µM
24.5 µM
13 µM
> 100 µM
18.3 µM
> 100 µM

###

Please provide measured TGI for the entries that follow.
# Tested on: UACC-257 melanoma
# methodSummary: NCI tumour cell line growth inhibition, 48 h

INSERT INTO measurements (molecule, assayendpoint, result) VALUES
  ('CN(C)C[C@H]1CC[C@@H](CN(C)C)C1=O', 'TGI', '16 µM');

Could you report TGI for every entry in the following list?
1. COc1ccc(C2(c3ccc(OC)cc3)OC(=O)c3cccc4cccc2c34)cc1
2. Cc1csc2c1C(=O)c1ccsc1C2=O
3. CCOC(=O)c1ccc(C(=O)C(C(C)=O)C(=O)OC(C)(C)C)n1C (configuration not stated)
4. OCC1OC(n2cnc3cccnc32)CC1O (configuration not stated)

Data returned:
1. > 100 µM
2. 2.88 µM
3. > 100 µM
4. > 100 µM

Count: 3. Required value per item: TGI.
1. N#Cc1cccc(NC(=O)c2ccc(C(=O)O)c(C(=O)c3ccc(C(=O)O)c(C(=O)Nc4cccc(C#N)c4)c3)c2)c1
2. COc1ccccc1/C=C\c1cnnc2ccccc12
3. O=C(CC(O)(C(F)(F)F)C(F)(F)F)C(CCCl)C(O)(C(F)(F)F)C(F)(F)F (configuration not stated)

Data returned:
1. > 100 µM
2. > 10 µM
3. 91.2 µM

Please give TGI, item by item, for the list that follows.
1. CC1=CC(O)C(O)C2(C)C1CC1OC(=O)C(O)C3C(C)C(O)C4(O)OCC13C42 (configuration not stated)
2. CC1(C)COC(c2cccc(C3=NC(C)(C)CO3)c2Br)=N1
3. O=NC1c2cccc3cccc(c23)C1N=O (configuration not stated)
4. COC(=O)C(/C(=N/NC(=O)c1ccncc1)C(=O)Nc1ccccc1OC)c1nc2ccc(Cl)cc2[nH]c1=O (configuration not stated)
5. Cc1nc(C)c(C(=O)Nc2cccc3c2C(=O)NC3=O)cc1C(=O)Nc1cccc2c1C(=O)NC2=O

Data returned:
467 µM
> 100 µM
27.5 µM
> 100 µM
> 100 µM

// each listed molecule needs a value for TGI
1. CN1CCn2c(Br)ccc2C1=O
2. C=C(C=O)C1CC(=O)C(C(=O)OC)[C@@H]2O[C@@](C)(CC2=O)C[C@@H]2OC(=O)[C@]3(O[C@@H]23)[C@@H](C(=O)OC)C1 (some centres not stated)
3. COc1ccc(C2OC(=O)c3c2ccc2ccccc32)c(C)c1 (configuration not stated)

Data returned:
1: > 100 µM; 2: 28.6 µM; 3: 80.5 µM

src = PubChem BioAssay (NCI)
